Field: GSPT1 GFP/RFP Relative Abundance. Provide a value for each of the compounds that follow.
subjectOfTest: GSPT1 (Homo sapiens, UniProt P15170+Q96SW2)
Sequence (P15170 whole entry, the tested form may be a part): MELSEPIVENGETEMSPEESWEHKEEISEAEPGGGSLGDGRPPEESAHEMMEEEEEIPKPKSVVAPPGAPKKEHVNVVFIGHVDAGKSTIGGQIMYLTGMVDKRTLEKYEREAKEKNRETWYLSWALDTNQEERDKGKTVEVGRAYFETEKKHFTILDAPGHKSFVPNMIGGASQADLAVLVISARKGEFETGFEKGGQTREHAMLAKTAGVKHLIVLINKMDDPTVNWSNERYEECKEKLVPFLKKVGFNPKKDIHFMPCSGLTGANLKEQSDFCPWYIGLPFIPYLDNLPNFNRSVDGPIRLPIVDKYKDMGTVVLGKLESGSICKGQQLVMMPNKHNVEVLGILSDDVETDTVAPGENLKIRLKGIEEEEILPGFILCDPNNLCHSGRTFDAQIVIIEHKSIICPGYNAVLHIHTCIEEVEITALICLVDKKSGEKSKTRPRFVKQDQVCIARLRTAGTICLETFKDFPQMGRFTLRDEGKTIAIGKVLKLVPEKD
Sequence (Q96SW2 whole entry, the tested form may be a part): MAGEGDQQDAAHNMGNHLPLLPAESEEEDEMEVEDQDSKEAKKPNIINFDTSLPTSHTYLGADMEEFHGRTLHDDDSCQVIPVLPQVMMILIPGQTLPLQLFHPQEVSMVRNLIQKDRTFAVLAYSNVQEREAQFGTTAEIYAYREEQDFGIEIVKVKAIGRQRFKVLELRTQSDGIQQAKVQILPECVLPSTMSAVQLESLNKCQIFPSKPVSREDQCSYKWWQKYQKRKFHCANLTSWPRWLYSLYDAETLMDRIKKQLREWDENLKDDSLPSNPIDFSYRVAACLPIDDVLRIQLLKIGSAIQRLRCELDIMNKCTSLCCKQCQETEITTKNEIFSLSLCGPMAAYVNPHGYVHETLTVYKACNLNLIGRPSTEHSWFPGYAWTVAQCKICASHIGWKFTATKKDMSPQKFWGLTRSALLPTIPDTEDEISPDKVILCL
Sequence (Q16531 whole entry partner, the tested form may be a part): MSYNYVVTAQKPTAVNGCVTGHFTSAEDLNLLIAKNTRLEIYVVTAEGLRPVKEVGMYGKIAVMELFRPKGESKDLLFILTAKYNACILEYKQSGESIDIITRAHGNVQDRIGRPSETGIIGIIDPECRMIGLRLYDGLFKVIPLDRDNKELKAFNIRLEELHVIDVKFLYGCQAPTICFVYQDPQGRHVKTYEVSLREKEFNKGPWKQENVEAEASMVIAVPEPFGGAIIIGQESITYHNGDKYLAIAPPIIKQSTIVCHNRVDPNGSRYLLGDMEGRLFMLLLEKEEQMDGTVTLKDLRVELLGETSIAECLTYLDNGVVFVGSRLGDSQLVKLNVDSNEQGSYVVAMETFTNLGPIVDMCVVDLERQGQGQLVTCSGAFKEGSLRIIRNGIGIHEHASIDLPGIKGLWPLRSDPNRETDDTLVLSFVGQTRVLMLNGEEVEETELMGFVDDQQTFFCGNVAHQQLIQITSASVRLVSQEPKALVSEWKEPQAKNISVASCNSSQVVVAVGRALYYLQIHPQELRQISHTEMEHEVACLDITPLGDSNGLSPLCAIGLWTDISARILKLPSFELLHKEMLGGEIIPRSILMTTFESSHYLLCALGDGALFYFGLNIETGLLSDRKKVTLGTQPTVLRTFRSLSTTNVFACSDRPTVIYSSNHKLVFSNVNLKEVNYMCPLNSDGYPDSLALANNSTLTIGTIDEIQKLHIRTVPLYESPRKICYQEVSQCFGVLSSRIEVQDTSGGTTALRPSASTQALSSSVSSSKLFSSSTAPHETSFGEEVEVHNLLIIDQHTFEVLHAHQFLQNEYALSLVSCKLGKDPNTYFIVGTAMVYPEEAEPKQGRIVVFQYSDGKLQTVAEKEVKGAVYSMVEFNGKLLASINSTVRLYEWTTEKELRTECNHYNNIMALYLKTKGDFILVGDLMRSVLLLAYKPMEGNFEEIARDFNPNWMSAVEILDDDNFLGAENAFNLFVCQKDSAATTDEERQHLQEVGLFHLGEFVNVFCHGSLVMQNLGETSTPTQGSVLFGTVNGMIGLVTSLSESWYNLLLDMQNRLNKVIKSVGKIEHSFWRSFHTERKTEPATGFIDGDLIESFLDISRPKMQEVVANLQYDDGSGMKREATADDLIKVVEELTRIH
assayOverview: Cellular degradation assay, eGFP-GSPT1 fusion with mCherry reporter in Flp-In 293 cells
Type: cell-based
Design: expressed in transfected cells; host or cells: Flp-In 293
testParameters: compound concentration 2.00E−05; 5 h incubation; n=1

Prompt: Report GSPT1 GFP/RFP Relative Abundance for O=C1CCC(N2C(=O)C=C(Nc3ccc(Cc4ccccc4)cc3)C2=O)C(=O)N1 (centres unmarked) please.
Completion: 0.743

Prompt: Bench note: what GSPT1 GFP/RFP Relative Abundance did O=C1CCC(N2C(=O)C=C(Nc3nc[nH]n3)C2=O)C(=O)N1 (centres unmarked) show?
Completion: 0.880

Prompt: Entry Cc1ccc(NC2=CC(=O)N(C3CCC(=O)NC3=O)C2=O)cc1Cl (centres unmarked) has what GSPT1 GFP/RFP Relative Abundance?
Completion: 1.204

Prompt: Record request: GSPT1 GFP/RFP Relative Abundance value, item O=C1CCC(N2C(=O)C=C(Nc3ccccc3)C2=O)C(=O)N1 (centres unmarked)
Completion: 0.763

Prompt: Please report the recorded GSPT1 GFP/RFP Relative Abundance for Cc1ccc(NC(=O)NCc2cccc(NC3=CC(=O)N(C4CCC(=O)NC4=O)C3=O)c2)cc1Cl (centres unmarked) .
Completion: 0.399

Prompt: Given the entry Cc1ccc(CC(=O)NCc2cccc(NC3=CC(=O)N(C4CCC(=O)NC4=O)C3=O)c2)cc1C (centres unmarked) , report its measured GSPT1 GFP/RFP Relative Abundance.
Completion: 0.387

Prompt: // GSPT1 GFP/RFP Relative Abundance lookup, key: Cc1ccc(NC(=O)Cc2cccc(NC3=CC(=O)N(C4CCC(=O)NC4=O)C3=O)c2)cc1Cl (centres unmarked)
Completion: 0.645

Prompt: Query: GSPT1 GFP/RFP Relative Abundance; subject: COC(=O)c1n[nH]c(NC2=CC(=O)N(C3CCC(=O)NC3=O)C2=O)n1 (centres unmarked)
Completion: 0.901

Prompt: May I ask what GSPT1 GFP/RFP Relative Abundance has been recorded for Cc1ccc(NC(=O)Nc2cccc(NC3=CC(=O)N(C4CCC(=O)NC4=O)C3=O)c2)cc1Cl (centres unmarked) ?
Completion: 0.083

Prompt: Query: GSPT1 GFP/RFP Relative Abundance; subject: COC(=O)CN(C)C1=CC(=O)N(C2CCC(=O)NC2=O)C1=O (centres unmarked)
Completion: 1.009

Prompt: GSPT1 GFP/RFP Relative Abundance for O=C1CCC(N2C(=O)C=C(Nc3cccc(-c4cc[nH]n4)c3)C2=O)C(=O)N1 (centres unmarked) ?
Completion: 0.666

Prompt: # lookup: GSPT1 GFP/RFP Relative Abundance of O=C(O)CCCNC1=CC(=O)N(C2CCC(=O)NC2=O)C1=O (centres unmarked)
Completion: 0.693

Prompt: Name the reported GSPT1 GFP/RFP Relative Abundance value associated with the compound O=C1CCC(N2C(=O)C=C(Nc3ccc(Cl)cc3)C2=O)C(=O)N1 (centres unmarked)
Completion: 1.019

Prompt: Need GSPT1 GFP/RFP Relative Abundance, item Cc1ccc(NC(=O)NCc2ccccc2NC2=CC(=O)N(C3CCC(=O)NC3=O)C2=O)cc1Cl (centres unmarked)
Completion: 0.476

Prompt: GET /values?readout=GSPT1 GFP/RFP Relative Abundance&item= COC(=O)CNC1=CC(=O)N(C2CCC(=O)NC2=O)C1=O (centres unmarked)
Completion: 1.172

Prompt: For the compound shown here, CN(C)C(=O)Cc1ccc(NC2=CC(=O)N(C3CCC(=O)NC3=O)C2=O)cc1 (centres unmarked) , give the reported GSPT1 GFP/RFP Relative Abundance.
Completion: 1.112

Prompt: // lookup GSPT1 GFP/RFP Relative Abundance for Cc1ccc(NC(=O)Nc2cccc(NC3=CC(=O)N(C4CCC(=O)NC4=O)C3=O)c2)cc1C (centres unmarked)
Completion: 0.096
